Numbers sourced from patent US5175172A.

Target: reverse transcriptase of the HIV 1 virus (Human immunodeficiency virus type 1 group M subtype B, UniProt P04585)
Construct: Action on Reverse Transcriptase of the HIV 1 Virus; made in house; host or cells: HIV 1 virus grown on CEM cells; virus pelleted from the culture medium and resuspended in Triton X 100 (viral lysate, not recombinant)
Assay: Action on reverse transcriptase of the HIV 1 virus (3H thymidine triphosphate incorporation)
Format: biochemical
Conditions: specificity test vs DNA polymerase, same concentrations; read-out: Di50 with respect to the reverse transcriptase
quantity kind: pIC50
Convention used: pIC50 is expressed as -log10 of the molar concentration.

Query string: Item Nc1c2c(nc3ccccc13)CCCC2 [Tacrine, 9-Amino-1,2,3,4-tetrahydroacridine] has what recorded pIC50?
Result string: 3.35
